assay-overview: self-splicing fitness, log relative to wild type (ln ratio); higher = more splicing; Tetrahymena group I intron in knt gene, E. coli kanamycin selection, DiMSum; sequences stand for … in CUCUCU…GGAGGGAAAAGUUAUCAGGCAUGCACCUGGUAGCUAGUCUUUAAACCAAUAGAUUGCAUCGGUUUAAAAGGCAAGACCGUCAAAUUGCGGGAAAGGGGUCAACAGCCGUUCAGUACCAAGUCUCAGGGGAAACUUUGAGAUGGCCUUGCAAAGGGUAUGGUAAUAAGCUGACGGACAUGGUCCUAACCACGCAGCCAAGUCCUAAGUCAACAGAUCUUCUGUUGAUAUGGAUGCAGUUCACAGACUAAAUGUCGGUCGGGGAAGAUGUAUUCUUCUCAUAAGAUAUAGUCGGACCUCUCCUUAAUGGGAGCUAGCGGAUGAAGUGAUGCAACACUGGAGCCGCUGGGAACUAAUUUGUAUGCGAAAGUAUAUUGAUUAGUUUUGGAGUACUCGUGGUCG;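 further: selection with 25 µg/mL kanamycin versus none on LB agar overnight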
conditions: 30 °C
Assign Yes whenever self-splicing fitness (ln) does not fall below -3; assign No whenever it does.

{"columns": ["primary-sequence", "class-assignment"],
 "data": [
  ["CUUUAGCAAUAUUACGACUG", "Yes"],
  ["CGGGAGCAAUAUUACGGUGU", "No"],
  ["GUUCAGCAAUAUUACGCUCG", "Yes"],
  ["AAUGAGCAAUAUUACGCUAA", "No"],
  ["GUGAAGCAAUAUUACGACAA", "Yes"],
  ["CCGAAGCAAUAUUACGUACG", "Yes"],
  ["AUGGAGCAAUAUUACGGAUU", "Yes"],
  ["CGUGAGCAAUAUUACGCAGG", "Yes"],
  ["CUAUAGCAAUAUUACGGGGG", "Yes"],
  ["GUUAAGCAAUAUUACGACAU", "Yes"],
  ["AAUGAGCAAUAUUACGAAAU", "Yes"],
  ["UGAUAGCAAUAUUACGCCAG", "Yes"],
  ["CCGAAGCAAUAUUACGUUUG", "No"],
  ["GGUCAGCAAUAUUACGCCGU", "Yes"],
  ["CCACAGCAAUAUUACGCGAC", "Yes"],
  ["UUGAAGCAAUAUUACGCGAA", "Yes"],
  ["UCGGAGCAAUAUUACGGAUA", "Yes"],
  ["UACUAGCAAUAUUACGAUCU", "Yes"],
  ["GUAAAGCAAUAUUACGCCCU", "Yes"],
  ["GACCAGCAAUAUUACGAUAG", "Yes"],
  ["UCGCAGCAAUAUUACGAUAU", "No"],
  ["CAACAGCAAUAUUACGUCCU", "Yes"],
  ["CCCGAGCAAUAUUACGGAUC", "No"],
  ["ACAAAGCAAUAUUACGUAAU", "Yes"],
  ["UCCUAGCAAUAUUACGUCAC", "Yes"],
  ["CGUCAGCAAUAUUACGACAU", "Yes"],
  ["CUCAAGCAAUAUUACGCACG", "Yes"],
  ["GGAUAGCAAUAUUACGUCCG", "Yes"],
  ["CAAAAGCAAUAUUACGUCGA", "Yes"],
  ["AUGGAGCAAUAUUACGCCUG", "Yes"],
  ["AGAUAGCAAUAUUACGAAUC", "Yes"],
  ["CGCAAGCAAUAUUACGCACC", "Yes"],
  ["UCCUAGCAAUAUUACGGUCG", "Yes"],
  ["ACGAAGCAAUAUUACGUAGC", "No"],
  ["GCUGAGCAAUAUUACGGGUG", "Yes"],
  ["GAAGAGCAAUAUUACGCAAU", "No"],
  ["AUGUAGCAAUAUUACGAAAC", "Yes"],
  ["UCAAAGCAAUAUUACGCAUA", "Yes"],
  ["CUAUAGCAAUAUUACGCGGU", "No"],
  ["UUCUAGCAAUAUUACGCGCA", "Yes"],
  ["ACCCAGCAAUAUUACGCCCG", "Yes"],
  ["CCGUAGCAAUAUUACGGCCG", "Yes"],
  ["AUCUAGCAAUAUUACGGCAA", "Yes"],
  ["CAGUAGCAAUAUUACGAAUC", "No"],
  ["CGGCAGCAAUAUUACGUGUA", "No"],
  ["GGACAGCAAUAUUACGUACA", "Yes"],
  ["AAAGAGCAAUAUUACGGUUG", "No"],
  ["UCGUAGCAAUAUUACGACUA", "Yes"],
  ["UAUCAGCAAUAUUACGUGUU", "No"],
  ["UGAUAGCAAUAUUACGUUGA", "No"],
  ["CCAAAGCAAUAUUACGCGUG", "Yes"],
  ["UUUAAGCAAUAUUACGACAA", "Yes"],
  ["GCCAAGCAAUAUUACGGUGG", "No"],
  ["UAAGAGCAAUAUUACGAAUA", "No"],
  ["UACUAGCAAUAUUACGUAGA", "Yes"],
  ["UGCAAGCAAUAUUACGAGGA", "No"],
  ["UGCAAGCAAUAUUACGUAUC", "No"],
  ["UAACAGCAAUAUUACGUAUC", "No"],
  ["CUCUAGCAAUAUUACGAUAG", "No"],
  ["AGGCAGCAAUAUUACGUUUG", "No"],
  ["GAAUAGCAAUAUUACGACUA", "Yes"],
  ["UUGUAGCAAUAUUACGAUAA", "Yes"],
  ["UUACAGCAAUAUUACGACCG", "Yes"],
  ["GGCAAGCAAUAUUACGUAGG", "Yes"],
  ["UUAGAGCAAUAUUACGAUCA", "Yes"]
]}

====

assay-overview: self-splicing fitness, log relative to wild type (ln ratio); higher = more splicing; Tetrahymena group I intron in knt gene, E. coli kanamycin selection, DiMSum; sequences stand for … in CUCUCU…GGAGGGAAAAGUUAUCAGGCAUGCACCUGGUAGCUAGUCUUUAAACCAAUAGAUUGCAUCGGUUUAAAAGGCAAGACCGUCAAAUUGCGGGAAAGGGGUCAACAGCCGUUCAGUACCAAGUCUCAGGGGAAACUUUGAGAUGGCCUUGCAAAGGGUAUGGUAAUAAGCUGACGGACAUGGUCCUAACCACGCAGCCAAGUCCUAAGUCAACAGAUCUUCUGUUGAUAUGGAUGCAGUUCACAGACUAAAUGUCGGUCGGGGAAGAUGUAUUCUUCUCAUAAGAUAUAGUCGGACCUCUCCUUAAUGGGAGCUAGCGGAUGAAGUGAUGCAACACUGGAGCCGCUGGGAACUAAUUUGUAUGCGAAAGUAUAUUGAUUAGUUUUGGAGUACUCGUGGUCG
conditions: 30 °C

{"columns": ["primary-sequence", "self-splicing fitness (ln)"],
 "data": [
  ["GAAUAGCAAUAUUACGUGCA", -0.851],
  ["CCUGAGCAAUAUUACGGGGA", -3.07],
  ["GUCGAGCAAUAUUACGCAUC", -2.31],
  ["UUACAGCAAUAUUACGUUUC", -3.05],
  ["CGAGAGCAAUAUUACGUGCG", -3.43],
  ["AUAUAGCAAUAUUACGCUGU", -2.9],
  ["AUCCAGCAAUAUUACGCGUC", -3.24],
  ["CUAUAGCAAUAUUACGCCUC", -3.66]
]}
